Assay: Saturation solubility of ERL batches in water
Type: physicochemical
Measured metric: solubility at 24 h (µg/mL)
Just the number please, in µg/mL, no unit attached.

Q: Indicate its recorded solubility at 24 h; the molecule in question is "C#Cc1cccc(Nc2ncnc3cc(OCCOC)c(OCCOC)cc23)c1"
Result: 0.7
